# Measured On: protein-protein interaction between Kras and SOS1 (biotin-tagged human Kras loaded with GDP, His-tagged human SOS1) (Homo sapiens (Human), UniProt P01116, G12D)
# Experiment: Protein-protein interaction inhibition between Kras and SOS1 (KrasG12D-SOS PPI) using AlphaScreen;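 note: kras produced in E. coli, Ni-coupled donor beads and streptavidin acceptor beads, excitation 680 nm with emission detected at 520–620 nm via singlet oxygen transfer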
# Format: biochemical
# Condition Info: AlphaScreen; biotin-tagged human Kras loaded with GDP, His-tagged human SOS1; read-out: KRAS G12D-SOS PPI IC50
Bridge positions count the residues as written; N and C are the ends. Square brackets hold non-standard residues; d marks the D form. Peptide text beside a SMILES is read from it. * marks the point of attachment. hPhe(3-Cl-4-CF3) = N[C@@H](CCc1ccc(C(F)(F)F)c(Cl)c1)C(=O)O; 3Oxa8azabicyclo(3.2.1)octane = C1CC2COCC1N2*; NMeGly(cPent) = CN[C@H](C(=O)O)C1CCCC1; NMeCha = CN[C@@H](CC1CCCCC1)C(=O)O; NMeD = CN[C@@H](CC(=O)O)C(=O)O; NMeL = CN[C@@H](CC(C)C)C(=O)O; NMeA = CN[C@@H](C)C(=O)O; Ac5c = NC1(C(=O)O)CCCC1; Aze = O=C(O)[C@@H]1CCN1; Sar = CNCC(=O)O
Measured Parameter: IC50 (nM)

# Compound, Measured Parameter, Scale Unit, Number
records = [
    ("CC[C@H](C)[C@@H]1NC(=O)[C@H](CC(C)C)N(C)C(=O)C[C@@H](C(=O)N2C3CCC2COC3)N(C)C(=O)[C@H](C2CCCC2)N(C)C(=O)C2(CCCC2)NC(=O)[C@@H]2CCCN2C(=O)[C@H](CCc2ccc(C(F)(F)F)c(Cl)c2)NC(=O)CN(C)C(=O)[C@H](CC2CCCCC2)N(C)C(=O)[C@@H]2CCN2C(=O)[C@H](C)N(C)C1=O [Compound 973] ([NMeL]I[NMeA][Aze][NMeCha][Sar][hPhe(3-Cl-4-CF3)]P[Ac5c][NMeGly(cPent)][NMeD]-{3Oxa8azabicyclo(3.2.1)octane}; lactam N-11)", "IC50", "nM", 2.8),
]
